- PROTOCOL_TEXT: Compound cytotoxicity (CC50), XTT-based colorimetric assay
- Assay type: cell-based
- REPORTED_CONDITIONS: human; uninfected MT2 cells, day 4, XTT assay
Counter-ions that a name gives are not always drawn.
Entries and their CC50 at 4 day
PROPERTY: CC50 at 4 day

>>> df
                                   molecule  observed_value
0  Cc1ccccc1S(=O)(=O)NC(=O)N[C@@H](Cc1ccccc1)c1nccn1-c1cccc(N2CCCC2)c1        > 100 µM
1  Cc1ccccc1S(=O)(=O)NC(=O)N[C@@H](Cc1ccccc1)c1nccn1-c1cccc(OC(F)(F)F)c1         > 33 µM
2  O=C(N[C@@H](Cc1ccccc1)c1nccn1-c1ccc2occc2c1)NS(=O)(=O)c1ccccc1F        > 100 µM
3  Cc1ccccc1S(=O)(=O)NC(=O)N[C@@H](Cc1ccccc1)c1nccn1-c1ccc2c(c1)OCO2        > 100 µM
4  Cc1ccccc1S(=O)(=O)NC(=O)N[C@@H](Cc1ccccc1)c1nccn1-c1ccc(OCc2ccccc2)cc1        > 100 µM
5  COC(=O)Nc1ccc(-n2ccnc2[C@H](Cc2ccccc2)NC(=O)NS(=O)(=O)c2cc(Cl)sc2Cl)cc1        > 100 µM
6  COC(=O)Nc1ccc(-n2ccnc2[C@H](Cc2ccccc2)NC(=O)NS(=O)(=O)c2ccccc2)cc1         > 33 µM
7  COc1ccc(-n2ccnc2[C@H](Cc2ccccc2)NC(=O)NS(=O)(=O)c2ccccc2C)cc1        > 100 µM
8  Cc1ccccc1S(=O)(=O)NC(=O)N[C@@H](Cc1cc(F)cc(F)c1)c1ncccc1-c1cncc(F)c1 [Example 100, TFA]        > 100 µM
9  CC(C)(C)OC(=O)n1cc(-c2cccnc2[C@@H](Cc2cc(F)cc(F)c2)NC(=O)NS(=O)(=O)c2ccccc2Cl)c2ccccc21 [Example 101, TFA]           36 µM

----------
- System: recombinant NL4-3 virus (nef section replaced with Renilla luciferase gene) in MT-2 cells
- PROTOCOL_TEXT: whole plant or invertebrate
- Type: cell-based, HIV
- REPORTED_CONDITIONS: NL43, luciferase activity in MT-2 cells infected 4-5 days with recombinant NL4-3 virus, read-out: Activity
pEC50: −log10 of the molar value.
PROPERTY: pEC50

>>> df
                        structure_as_smiles  property  observed_value
0  CCOC(=O)Nc1ccc(-n2ccnc2[C@H](Cc2ccccc2)NC(=O)NS(=O)(=O)c2ccccc2C)cc1     pEC50          > 7.00
1  COc1ccc(Cn2ccnc2[C@H](Cc2ccccc2)NC(=O)NS(=O)(=O)c2ccccc2Cl)cc1     pEC50    6.00 to 7.00
2  Cc1ccccc1S(=O)(=O)NC(=O)N[C@@H](Cc1ccccc1)c1nccn1-c1ccc2occc2c1     pEC50          > 7.00

----------
- System: recombinant NL4-3 virus (nef section replaced with Renilla luciferase gene) in MT-2 cells
- PROTOCOL_TEXT: whole plant or invertebrate
- Type: cell-based, HIV
- REPORTED_CONDITIONS: NL43, luciferase activity in MT-2 cells infected 4-5 days with recombinant NL4-3 virus, read-out: Activity
Where a name gives a salt, the structure may show the parent alone.
Entries and their EC50
PROPERTY: EC50

>>> print(df.to_string())
                                    compound  property  observed_value
 0  C=CCOc1cccc(-n2ccnc2[C@H](Cc2ccccc2)NC(=O)NS(=O)(=O)c2ccccc2C)c1 [Example 17]      EC50  100 to 1000 nM
 1  COC(=O)Nc1ccc(-c2cccnc2[C@H](Cc2cc(F)cc(F)c2)NC(=O)NS(=O)(=O)c2ccccc2Cl)cc1 [Example 91, TFA]      EC50  100 to 1000 nM
 2  Cc1ccccc1S(=O)(=O)NC(=O)N[C@@H](Cc1cc(F)cc(F)c1)c1ncccc1-c1ccc(F)c2ccccc12 [Example 132, TFA]      EC50       > 1000 nM
 3  COC(=O)Nc1ccc(-n2ccnc2[C@H](Cc2ccccc2)NC(=O)NS(=O)(=O)C(C)C)cc1 [Example 52]      EC50  100 to 1000 nM
 4  Cc1ccccc1S(=O)(=O)NC(=O)N[C@@H](Cc1cc(F)cc(F)c1)c1ncccc1-c1ccc(F)c(C(=O)O)c1 [Example 131, TFA]      EC50       > 1000 nM
 5  Cc1nc2cc(-n3ccnc3[C@H](Cc3ccccc3)NC(=O)NS(=O)(=O)c3ccccc3C)ccc2s1 [Example 72]      EC50        < 100 nM
 6  CCOc1ccc(-c2cccnc2[C@H](Cc2cc(F)cc(F)c2)NC(=O)NS(=O)(=O)c2ccccc2C)cc1 [Example 94, TFA]      EC50  100 to 1000 nM
 7  COC(=O)Nc1ccc(-n2ccnc2[C@H](Cc2ccccc2)NC(=O)NS(=O)(=O)c2ccccc2C)cc1 [Example 2]      EC50        < 100 nM
 8  Cc1ccccc1S(=O)(=O)NC(=O)N[C@@H](Cc1ccccc1)c1nccn1-c1ccc(-c2ccoc2C)cc1 [Example 62]      EC50        < 100 nM
 9  COC(=O)Nc1cccc(-n2ccnc2[C@H](Cc2ccccc2)NC(=O)NS(=O)(=O)c2ccccc2C)c1 [Example 76]      EC50  100 to 1000 nM
10  Cc1ccccc1S(=O)(=O)NC(=O)N[C@@H](Cc1ccccc1)c1nccn1-c1ccc2sccc2c1 [Example 74]      EC50        < 100 nM
11  COC(=O)Nc1ccc(-n2ccnc2[C@H](Cc2ccccc2)NC(=O)NS(=O)(=O)c2cccc(Cl)c2Cl)cc1 [Example 51]      EC50  100 to 1000 nM
12  O=C(N[C@@H](Cc1ccccc1)c1nccn1-c1ccc2scnc2c1)NS(=O)(=O)c1ccccc1F [Example 71]      EC50  100 to 1000 nM
13  O=C(N[C@@H](Cc1cc(F)cc(F)c1)c1ncccc1-c1ccc2ccncc2c1)NS(=O)(=O)c1ccccc1Cl [Example 92, TFA]      EC50  100 to 1000 nM
14  Cc1ccccc1S(=O)(=O)NC(=O)N[C@H](Cc1cc(F)cc(F)c1)c1ncccc1-c1ccc(F)c(C(N)=O)c1 [Example 117, TFA]      EC50       > 1000 nM
15  COC(=O)Nc1ccc(-c2cccnc2C(Cc2ccccc2)NC(=O)NS(=O)(=O)c2ccccc2Cl)cc1 (centres unmarked) [Example 118, TFA]      EC50       > 1000 nM
16  Cc1ccccc1S(=O)(=O)NC(=O)N[C@@H](Cc1cc(F)cc(F)c1)c1ncccc1-c1coc2ccccc12 [Example 127, TFA]      EC50       > 1000 nM
17  Cc1ccccc1S(=O)(=O)NC(=O)N[C@@H](Cc1ccccc1)c1nccn1-c1ccc2c(c1)CCO2 [Example 18]      EC50        < 100 nM
18  COc1ccc(-n2ccnc2[C@H](Cc2ccccc2)NC(=O)NS(=O)(=O)c2ccccc2C)cc1 [Example 1]      EC50        < 100 nM
19  Cc1ccccc1S(=O)(=O)NC(=O)N[C@@H](Cc1cc(F)cc(F)c1)c1ncccc1-c1ccc(CN(C)C)cc1 [Example 120, TFA]      EC50  100 to 1000 nM
